Data origin, for the record: ChEMBL document CHEMBL1157616

Recorded pIC50, one value per entry.
biological target: Vascular endothelial growth factor receptor 2 (Homo sapiens, UniProt P35968); assay: Inhibition of VEGFR2 assessed as [33Pi] incorporation by microplate scintillation counting in presence of 1 uM ATP
Sequence (P35968 whole entry): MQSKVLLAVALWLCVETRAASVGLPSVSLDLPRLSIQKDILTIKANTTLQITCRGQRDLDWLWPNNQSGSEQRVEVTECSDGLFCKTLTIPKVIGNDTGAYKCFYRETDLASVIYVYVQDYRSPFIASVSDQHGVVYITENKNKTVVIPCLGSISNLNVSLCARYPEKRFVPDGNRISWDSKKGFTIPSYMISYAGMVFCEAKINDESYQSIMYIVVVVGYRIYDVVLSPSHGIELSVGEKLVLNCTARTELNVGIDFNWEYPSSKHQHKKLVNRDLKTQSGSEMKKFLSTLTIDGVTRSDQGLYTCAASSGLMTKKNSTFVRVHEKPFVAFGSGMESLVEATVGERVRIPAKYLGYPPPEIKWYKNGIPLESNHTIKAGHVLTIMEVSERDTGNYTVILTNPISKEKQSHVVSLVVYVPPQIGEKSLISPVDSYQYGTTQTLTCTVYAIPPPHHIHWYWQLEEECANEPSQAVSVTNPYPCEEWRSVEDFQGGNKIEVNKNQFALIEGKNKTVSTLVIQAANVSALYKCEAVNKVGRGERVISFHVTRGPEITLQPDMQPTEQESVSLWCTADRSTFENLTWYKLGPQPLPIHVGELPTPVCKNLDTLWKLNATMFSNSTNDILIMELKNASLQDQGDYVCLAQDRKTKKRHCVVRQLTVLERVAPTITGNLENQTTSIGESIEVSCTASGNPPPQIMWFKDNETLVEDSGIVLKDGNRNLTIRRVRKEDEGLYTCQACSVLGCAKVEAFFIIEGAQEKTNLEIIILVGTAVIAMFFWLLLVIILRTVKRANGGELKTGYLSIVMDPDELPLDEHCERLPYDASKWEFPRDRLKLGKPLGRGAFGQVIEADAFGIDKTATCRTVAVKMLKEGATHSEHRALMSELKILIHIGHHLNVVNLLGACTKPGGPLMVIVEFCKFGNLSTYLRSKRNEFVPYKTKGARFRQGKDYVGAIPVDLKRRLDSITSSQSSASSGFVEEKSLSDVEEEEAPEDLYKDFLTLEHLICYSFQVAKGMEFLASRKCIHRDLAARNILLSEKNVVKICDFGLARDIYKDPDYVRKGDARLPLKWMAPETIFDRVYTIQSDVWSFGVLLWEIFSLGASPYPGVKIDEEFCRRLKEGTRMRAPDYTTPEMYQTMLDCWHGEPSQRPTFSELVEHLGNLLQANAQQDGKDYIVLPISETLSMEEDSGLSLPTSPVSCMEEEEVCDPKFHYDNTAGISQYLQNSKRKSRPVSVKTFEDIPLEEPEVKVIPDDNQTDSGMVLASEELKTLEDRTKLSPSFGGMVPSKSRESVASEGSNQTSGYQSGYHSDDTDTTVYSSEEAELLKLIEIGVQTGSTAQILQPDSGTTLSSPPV
pIC50: −log10 of the molar value.
measuredAttribute: pIC50

>  <molecule>
Cn1c(=O)c2cc3c(nc2n(C)c1=O)-c1ncccc1NC(=O)C3

>  <resultOperator>
<

>  <endpointResult>
4.00

$$$$
>  <molecule>
Cn1c(=O)c2cc3c(nc2n(C)c1=O)-c1cnccc1NC(=O)C3

>  <resultOperator>
<

>  <endpointResult>
4.00

$$$$
>  <molecule>
COc1ccc2c(c1)NC(=O)Cc1cnc3ncnn3c1-2

>  <resultOperator>
<

>  <endpointResult>
4.00

$$$$
>  <molecule>
COc1ccc2c(c1)NC(=O)Cc1cc3c(=O)[nH]c(=O)[nH]c3nc1-2

>  <resultOperator>
<

>  <endpointResult>
4.00

$$$$
>  <molecule>
COc1ccc(Nc2ncc3c(n2)-c2cnccc2NC(=O)C3)cc1

>  <resultOperator>
=

>  <endpointResult>
6.72

$$$$
>  <molecule>
O=C1Cc2cnc(Nc3ccc(O)c(Cl)c3)nc2-c2cnccc2N1

>  <resultOperator>
=

>  <endpointResult>
7.06

$$$$
>  <molecule>
COc1ccc2c(c1)NC(=O)Cc1cnc(Nc3cccc(O)c3)nc1-2

>  <resultOperator>
=

>  <endpointResult>
7.82

$$$$
>  <molecule>
O=C1Cc2cnc(Nc3ccc(Cl)cc3)nc2-c2ccccc2N1

>  <resultOperator>
=

>  <endpointResult>
6.72

$$$$
>  <molecule>
O=C1Cc2cc3c(=O)[nH]c(=O)[nH]c3nc2-c2cnccc2N1

>  <resultOperator>
<

>  <endpointResult>
4.00

$$$$
>  <molecule>
O=C1Cc2cnc3ncnn3c2-c2ncccc2N1

>  <resultOperator>
<

>  <endpointResult>
4.00

$$$$
>  <molecule>
O=C1Cc2cnc(Nc3ccc(O)cc3)nc2-c2ncccc2N1

>  <resultOperator>
=

>  <endpointResult>
5.57

$$$$
>  <molecule>
O=C1Cc2cnc(Nc3ccccc3O)nc2-c2ccccc2N1

>  <resultOperator>
=

>  <endpointResult>
6.28

$$$$
>  <molecule>
O=C1Cc2cnc(Nc3ccc(O)cc3)nc2-c2ccccc2N1

>  <resultOperator>
=

>  <endpointResult>
7.10

$$$$
>  <molecule>
Cc1cc(O)ccc1Nc1ncc2c(n1)-c1ccccc1NC(=O)C2

>  <resultOperator>
=

>  <endpointResult>
5.92

$$$$
>  <molecule>
O=C1Cc2cnc3cc(-c4ccccc4)nn3c2-c2ccccc2N1

>  <resultOperator>
=

>  <endpointResult>
6.20

$$$$
>  <molecule>
COc1ccc2c(c1)NC(=O)Cc1cnc3ccnn3c1-2

>  <resultOperator>
=

>  <endpointResult>
5.07

$$$$
>  <molecule>
CCOc1ccc(Nc2ncc3c(n2)-c2cnccc2NC(=O)C3)cc1

>  <resultOperator>
=

>  <endpointResult>
7.00

$$$$
